quantity-measured: melting point (°C)

>>> df
                                   compound  numeric_result
0      O=C(ON=C(Cc1ccccc1)c1ccccc1)c1ccccc1              92
1  CC12CCC(OC=O)CC1CCC1C2CCC2(C)C1CCC2(O)C#Cc1ccccc1 (stereo unspecified)             205
2                       Nc1ccccc1S(N)(=O)=O             155
3  COc1cc(C(=O)NCc2ccc(OCCN(C)C)cc2)cc(OC)c1OC             189
4              CNC(=O)N(C)c1nnc(C(F)(F)F)s1             136
